Where do the numbers come from? From patent US20220331457A1.

Molecular target: human carbonic anhydrase IX (CAIX) (human, UniProt Q16790 38-414)
Assay: SPR (Biacore T200), single cycle kinetics; antibody in HEK EBNA supernatant captured on Protein G chip, CAIX as analyte
reported.property: binding result

>  <binder>
Girentuximab humanised VH1/Vκ5 IgG1 (antibody, V domains shown) VH: DVKLVESGGGLVKPGGSLRLSCAASGFTFSNYYMSWVRQAPGKGLELVAAINSDGGITYYLDTVKGRFTISRDNAKNTLYLQMSSLKSEDTALYYCARHRSGYFSMDYWGQGTSVTVSS VL: DIQMTQSPSSLSASVGDRVTITCKASQNVVSAVAWYQQKPGQAPRRLIYSASNRYTGVPDRFSGSGSGTDFTLTISSLQAEDLADYYCQQYSNYPWTFGGGTKVEIKR

>  <recorded.result>
binds

$$$$
>  <binder>
Girentuximab humanised VH5/Vκ2 IgG1 (antibody, V domains shown) VH: EVQLVESGGGLVKPGGSLRLSCAASGFTFSNYYMSWVRQAPGKGLEWVAAINSDGGITYYLDTVKGRFTISRDNAKNTLYLQMNSLRAEDTALYYCARHRSGYFSMDYWGQGTLVTVSS VL: DIVMTQSPSSLSASVGDRVTITCKASQNVVSAVAWYQQKPGQAPRLLIYSASNRYTGVPDRFTGSGSGTDFTLTISSLQAEDLADYFCQQYSNYPWTFGGGTKVEIKR

>  <recorded.result>
binds

$$$$
>  <binder>
Girentuximab humanised VH5/Vκ3 IgG1 (antibody, V domains shown) VH: EVQLVESGGGLVKPGGSLRLSCAASGFTFSNYYMSWVRQAPGKGLEWVAAINSDGGITYYLDTVKGRFTISRDNAKNTLYLQMNSLRAEDTALYYCARHRSGYFSMDYWGQGTLVTVSS VL: DIQMTQSPSSLSASVGDRVTITCKASQNVVSAVAWYQQKPGQAPRLLIYSASNRYTGVPDRFSGSGSGTDFTLTISSLQAEDLADYFCQQYSNYPWTFGGGTKVEIKR

>  <recorded.result>
binds

$$$$
